Subject Of Test: m-Calpain (Rattus norvegicus, UniProt Q07009)
Construct: m-Calpain was purified from brains of rats; from tissue; host or cells: rat brain
Sequence (Q07009 20-700 limits assumed): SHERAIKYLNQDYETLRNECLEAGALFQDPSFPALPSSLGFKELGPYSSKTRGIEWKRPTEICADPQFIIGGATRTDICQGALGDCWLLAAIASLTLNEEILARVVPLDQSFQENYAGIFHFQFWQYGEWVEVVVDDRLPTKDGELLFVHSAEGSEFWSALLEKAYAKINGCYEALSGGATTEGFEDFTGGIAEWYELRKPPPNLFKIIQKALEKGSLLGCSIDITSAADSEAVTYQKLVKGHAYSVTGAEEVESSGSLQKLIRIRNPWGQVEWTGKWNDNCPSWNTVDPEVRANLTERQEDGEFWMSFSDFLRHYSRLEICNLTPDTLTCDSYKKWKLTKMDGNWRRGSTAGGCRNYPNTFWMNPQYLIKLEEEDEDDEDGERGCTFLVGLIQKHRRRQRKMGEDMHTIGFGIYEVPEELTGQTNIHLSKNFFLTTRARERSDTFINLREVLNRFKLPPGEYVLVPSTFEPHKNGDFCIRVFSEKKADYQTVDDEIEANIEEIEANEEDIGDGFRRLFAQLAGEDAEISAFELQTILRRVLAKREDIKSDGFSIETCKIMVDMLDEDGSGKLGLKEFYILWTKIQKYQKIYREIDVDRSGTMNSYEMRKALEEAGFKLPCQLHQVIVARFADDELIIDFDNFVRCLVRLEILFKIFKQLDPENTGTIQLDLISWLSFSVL
Sequence (Q64537 whole entry partner): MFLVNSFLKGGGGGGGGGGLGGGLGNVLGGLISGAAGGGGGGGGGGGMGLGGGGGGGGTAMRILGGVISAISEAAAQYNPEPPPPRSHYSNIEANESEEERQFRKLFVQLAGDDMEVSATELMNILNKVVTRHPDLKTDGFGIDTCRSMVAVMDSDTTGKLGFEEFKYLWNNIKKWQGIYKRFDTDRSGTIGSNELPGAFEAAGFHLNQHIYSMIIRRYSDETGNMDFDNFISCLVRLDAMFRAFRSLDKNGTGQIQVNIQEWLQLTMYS
Assay Explanation: Inhibitory activity against calpain (m-Calpain purified from brains of rats)
Type: biochemical
Reported Conditions: Inhibitory activity against calpain (Table-6)
Procedure: m-Calpain was purified from brains of rats according to a method described in a literature (Journal of Biological Chemistry, Vol. 259, p. 3210, 1984), and the inhibitory activity was determined in a manner according to a published method (Journal of Biological Chemistry, Vol. 259, p. 12489, 1984).
pIC50: −log10 of the molar value.
We begin with a simple list: items and their reported pIC50.

- Compound: "COc1ccccc1C(=O)N[C@@H](CC(C)C)C(=O)N[C@H]1CCOC1O (some centres unmarked) [Example 52]"
  pIC50: 6.47
- Compound: "CCCC[C@H](NC(=O)OCc1ccccc1)C(=O)N[C@H]1CCOC1O (some centres unmarked) [Example 6]"
  pIC50: 5.64
- Compound: "Cc1cccc(C)c1C(=O)N[C@@H](CC(C)C)C(=O)N[C@H]1CCOC1O (some centres unmarked) [Example 47]"
  pIC50: 5.64
- Compound: "CC(C)C[C@H](NC(=O)c1ccccc1)C(=O)N[C@H]1CCOC1O (some centres unmarked) [Example 39]"
  pIC50: 6.43
- Compound: "CC(C)C[C@H](NC(=O)OCC1CCCCO1)C(=O)N[C@H]1CCOC1O (some centres unmarked) [Example 24]"
  pIC50: 5.89
- Compound: "CC(C)C[C@H](NC(=O)OC(C)(C)C)C(=O)N[C@H]1CCOC1O (some centres unmarked) [Example 10]"
  pIC50: 6.02
- Compound: "CC(C)C[C@H](NC(=O)OCC1CCCCC1)C(=O)N[C@H]1CCOC1O (some centres unmarked) [Example 12]"
  pIC50: 6.19
- Compound: "CC(C)C[C@H](NC(=O)OCc1cccc[n+]1[O-])C(=O)NC1CCOC1O (some centres unmarked) [Example 26]"
  pIC50: 5.85
- Compound: "CCC[C@H](NC(=O)OCc1ccccc1)C(=O)N[C@H]1CCOC1O (some centres unmarked) [Example 4]"
  pIC50: 6.05
- Compound: "CC(C)COC(=O)N[C@@H](CC(C)C)C(=O)N[C@H]1CCOC1O (some centres unmarked) [Example 11]"
  pIC50: 5.96
- Compound: "COc1cccc(OC)c1C(=O)N[C@@H](CC(C)C)C(=O)N[C@H]1CCOC1O (some centres unmarked) [Example 55]"
  pIC50: 6.08
- Compound: "COc1cc(OC)cc(C(=O)N[C@@H](CC(C)C)C(=O)N[C@H]2CCOC2O)c1 (some centres unmarked) [Example 56]"
  pIC50: 6.19
- Compound: "Cc1cccc(C(=O)N[C@@H](CC(C)C)C(=O)N[C@H]2CCOC2O)c1 (some centres unmarked) [Example 45]"
  pIC50: 6.25
- Compound: "CC(C)C[C@H](NC(=O)OCc1ccc(F)cc1)C(=O)N[C@H]1CCOC1O (some centres unmarked) [Example 15]"
  pIC50: 6.17
- Compound: "CC(C)C[C@H](NC(=O)OCc1ccc(Cl)cc1)C(=O)N[C@H]1CCOC1O (some centres unmarked) [Example 17]"
  pIC50: 6.41
- Compound: "CC(C)C[C@H](NC(=O)OCc1ccccn1)C(=O)N[C@H]1CCOC1O (some centres unmarked) [Example 25]"
  pIC50: 5.98
- Compound: "CC(C)[C@H](NC(=O)OCc1ccccc1)C(=O)NC1CCOC1O (some centres unmarked) [Example 5]"
  pIC50: 5.64
- Compound: "CC(C)C[C@H](NC(=O)Cc1cccc2ccccc12)C(=O)N[C@H]1CCOC1O (some centres unmarked) [Example 33]"
  pIC50: 6.96
- Compound: "Cc1ccc(COC(=O)N[C@@H](CC(C)C)C(=O)N[C@H]2CCOC2O)cc1 (some centres unmarked) [Example 19]"
  pIC50: 6.32
- Compound: "COC(=O)N[C@@H](CC(C)C)C(=O)NC1CCOC1O (some centres unmarked) [Example 9]"
  pIC50: 5.81
- Compound: "CC(C)C[C@H](NC(=O)c1ccc(F)cc1)C(=O)N[C@H]1CCOC1O (some centres unmarked) [Example 42]"
  pIC50: 6.09
- Compound: "Cc1cc(C)c(C(=O)N[C@@H](CC(C)C)C(=O)N[C@H]2CCOC2O)c(C)c1 (some centres unmarked) [Example 49]"
  pIC50: 6.17
- Compound: "Cc1ccccc1C(=O)N[C@@H](CC(C)C)C(=O)N[C@H]1CCOC1O (some centres unmarked) [Example 44]"
  pIC50: 6.24
- Compound: "COc1ccccc1COC(=O)N[C@@H](CC(C)C)C(=O)N[C@H]1CCOC1O (some centres unmarked) [Example 20]"
  pIC50: 6.25
- Compound: "CCC(C)[C@H](NC(=O)OCc1ccccc1)C(=O)N[C@H]1CCOC1O (some centres unmarked) [Example 7]"
  pIC50: 5.62
- Compound: "CC(C)C[C@H](NC(=O)OC1CCCCC1)C(=O)N[C@H]1CCOC1O (some centres unmarked) [Example 27]"
  pIC50: 6.19
- Compound: "COc1ccc(COC(=O)N[C@@H](CC(C)C)C(=O)N[C@H]2CCOC2O)cc1 (some centres unmarked) [Example 21]"
  pIC50: 6.47
- Compound: "CC(C)C[C@H](NC(=O)Oc1ccccc1)C(=O)N[C@H]1CCOC1O (some centres unmarked) [Example 28]"
  pIC50: 6.28
- Compound: "CC(C)C[C@H](NC(=O)c1ccc(C(F)(F)F)cc1)C(=O)N[C@H]1CCOC1O (some centres unmarked) [Example 51]"
  pIC50: 6.32
- Compound: "CCc1ccc(C(=O)N[C@@H](CC(C)C)C(=O)N[C@H]2CCOC2O)cc1 (some centres unmarked) [Example 50]"
  pIC50: 6.19
- Compound: "COc1ccc(C(=O)N[C@@H](CC(C)C)C(=O)N[C@H]2CCOC2O)c(OC)c1 (some centres unmarked) [Example 54]"
  pIC50: 6.15
- Compound: "CC(C)C[C@H](NC(=O)OCc1ccccc1)C(=O)N[C@H]1CCOC1O (some centres unmarked) [Example 13]"
  pIC50: 6.18
- Compound: "CC(C)C[C@H](NC(=O)c1cccc(F)c1)C(=O)N[C@H]1CCOC1O (some centres unmarked) [Example 41]"
  pIC50: 5.94
- Compound: "CC(C)C[C@H](NC(=O)c1ccc(Cl)cc1)C(=O)N[C@H]1CCOC1O (some centres unmarked) [Example 43]"
  pIC50: 6.44
- Compound: "CC(C)C[C@H](NC(=O)COc1ccccc1)C(=O)N[C@H]1CCOC1O (some centres unmarked) [Example 34]"
  pIC50: 6.48
